biological target: hCTR Y284A (Homo sapiens, UniProt P30988, Y284A); construct: expressed in transfected cells; test: Homologous whole cell competition binding; conditions: homologous competition of 125I-sCT(8-32), whole cells, mean ± S.E.M., SEM
Where no end group is shown, it is not given here.
parameter: Ki (nM)
Numbers only; they are read as nM.

Data point: VLGKLSQELHKLQTYPRTNTGSGTP-NH2 [sCT(8-32)] ; Ki = 0.141

----------
Target: hCTR N365A (Homo sapiens, UniProt P30988, N365A)
Construct: c-Myc (N); expressed in transfected cells
Sequence (P30988 25-474 N365A): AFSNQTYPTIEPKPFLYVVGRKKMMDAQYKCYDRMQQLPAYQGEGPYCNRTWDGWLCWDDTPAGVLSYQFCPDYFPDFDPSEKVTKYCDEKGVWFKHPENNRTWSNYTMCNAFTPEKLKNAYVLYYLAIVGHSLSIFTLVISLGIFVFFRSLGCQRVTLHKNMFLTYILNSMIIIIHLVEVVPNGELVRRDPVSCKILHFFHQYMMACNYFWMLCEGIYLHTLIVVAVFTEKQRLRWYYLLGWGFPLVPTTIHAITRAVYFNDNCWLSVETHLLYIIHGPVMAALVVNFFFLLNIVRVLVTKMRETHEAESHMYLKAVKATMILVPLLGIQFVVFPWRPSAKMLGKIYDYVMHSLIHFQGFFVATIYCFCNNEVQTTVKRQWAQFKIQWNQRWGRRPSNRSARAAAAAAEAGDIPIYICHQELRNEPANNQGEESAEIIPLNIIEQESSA
Assay: Homologous whole cell competition binding
Conditions: homologous competition of 125I-sCT(8-32), whole cells, mean ± S.E.M., SEM
Where no end group is shown, it is not given here.
parameter: pKi
Would you please state pKi, meaning minus log10 of the concentration in mol/L, as a bare number?

Data point: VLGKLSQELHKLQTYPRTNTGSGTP-NH2 [sCT(8-32)] ; pKi = 9.63
